Every entry's value here was drawn from patent US9200046B2.

Parameter activation at 16 µM: see the listing below.
- target-desc: Nrf2-Keap1 complex (Homo sapiens)
- protocol: cell-based
- Assay type: cell-based
- reported-conditions: 3 h, read-out: Activation 100 nL
value-kind: activation at 16 µM (%)

1. CC1(C)C2(Cl)C(Cl)C(Cl)C(Cl)(C(Cl)Cl)C1(Cl)C2Cl (stereo not shown) :: 388
2. C=C(NC(=O)C(=C)NC(=O)c1csc(C2=N[C@@H]3c4csc(n4)[C@H]4NC(=O)c5csc(n5)[C@H]([C@](C)(O)[C@@H](C)O)NC(=O)[C@H]5CSC(=N5)/C(=C/C)NC(=O)[C@H]([C@@H](C)O)NC(=O)c5csc(n5)[C@]3(CC2)NC(=O)[C@H](C)NC(=O)C(=C)NC(=O)[C@H](C)NC(=O)[C@H]([C@@H](C)CC)N[C@@H]2C=Cc3c([C@H](C)O)cc(nc3[C@H]2O)C(=O)O[C@@H]4C)n1)C(N)=O [THIOSTREPTON, reference compound] :: 58
3. CCC(=O)O[C@H]1[C@H](O[C@@H]2[C@@H](C)[C@H](O[C@H]3C[C@@](C)(OC)[C@@H](O)[C@H](C)O3)[C@@H](C)C(=O)O[C@H](CC)[C@@](C)(O)[C@H](O)[C@@H](C)C(=O)[C@H](C)C[C@@]2(C)O)O[C@H](C)C[C@@H]1N(C)C [ERYTHROMYCINESTOLATE, reference compound] :: 31
4. O=C1c2cccc(O)c2C(=O)c2c(O)cccc21 [DANTRON, reference compound] :: 29

###

Parameter activation at 16 µM: see the listing below.
- target-desc: Nrf2-Keap1 complex (Homo sapiens, UniProt Q14145)
- Sequence (Q14145 whole entry, one chain of several): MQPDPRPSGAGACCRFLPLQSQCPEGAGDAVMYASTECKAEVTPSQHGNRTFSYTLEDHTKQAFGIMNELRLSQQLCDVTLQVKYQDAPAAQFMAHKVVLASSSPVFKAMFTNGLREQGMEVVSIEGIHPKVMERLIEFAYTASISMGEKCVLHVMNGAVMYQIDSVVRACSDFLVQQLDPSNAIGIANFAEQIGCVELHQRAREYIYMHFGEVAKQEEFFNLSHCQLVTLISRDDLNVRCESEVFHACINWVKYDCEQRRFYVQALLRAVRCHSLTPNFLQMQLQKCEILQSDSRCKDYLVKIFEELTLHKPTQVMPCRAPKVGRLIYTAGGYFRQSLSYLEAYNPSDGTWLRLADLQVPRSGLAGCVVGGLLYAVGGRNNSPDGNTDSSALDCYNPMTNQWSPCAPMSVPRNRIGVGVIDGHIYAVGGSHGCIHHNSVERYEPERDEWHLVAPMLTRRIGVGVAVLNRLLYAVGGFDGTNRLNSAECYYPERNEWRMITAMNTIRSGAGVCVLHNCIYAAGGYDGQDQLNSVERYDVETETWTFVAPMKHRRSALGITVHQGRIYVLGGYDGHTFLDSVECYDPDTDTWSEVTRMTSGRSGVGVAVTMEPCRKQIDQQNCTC
- protocol: cell-based
- Type: cell-based
- reported-conditions: 3 h, read-out: Activation 100 nL
value-kind: activation at 16 µM (%)

1) COc1ccc(-c2coc3cc(O)ccc3c2=O)c(O)c1O [KOPARIN] :: 223
2) CO/N=C(\C(=O)N[C@@H]1C(=O)N2C(C(=O)O)=C(COC(C)=O)CS[C@H]12)c1csc(N)n1 [CEFOTAXIMESODIUM, reference compound] :: 50
3) CC1CCc2cc(F)cc3c(=O)c(C(=O)O)cn1c23 (stereo not shown) [FLUMEQUINE, reference compound] :: 38
4) NCCc1ccc(O)c(O)c1 [3-HYDROXYTYRAMINE] :: 37

###

- target-desc: Nrf2-Keap1 complex (Homo sapiens)
- protocol: cell-based
- Type: cell-based
- reported-conditions: 3 h, read-out: Activation 200 nL
Where a name gives a salt, the structure may show the parent alone.
value-kind: activation at 32 µM (%)

1) O=C(/C=C/C(=O)Oc1ccccc1C(=O)O)Oc1ccccc1C(=O)O [BISSALICYLFUMARATE] :: 156
2) CCCCC(CC)CNC(=N)NC(=N)NCCCCCCNC(=N)NC(=N)NCC(CC)CCCC (centres unmarked) [ALEXIDINEHYDROCHLORIDE] :: -18
3) Cc1c(O)c(O)cc2c1CC=C1[C@@]2(C)CC[C@@]2(C)[C@@H]3C[C@](C)(C(=O)O)CC[C@]3(C)CC[C@]12C [DIHYDROCELASTROL] :: -16
4) COc1ccc(/C=C/C(=O)c2ccc(O)cc2O)cc1OC [2′,4′-DIHYDROXY-3,4-DIMETHOXYCHALCONE] :: 185
5) CNC(=O)CSP(=S)(OC)OC [DIMETHOATE] :: 145
6) C=C(C)[C@H]1Cc2c(ccc3c2O[C@@H]2COc4cc(OC)c(OC)cc4[C@@H]2C3=O)O1 :: 30
7) COc1cc(O)cc(OC)c1OC [ANTIAROL] :: 81
8) O=c1c(-c2ccccc2)coc2cc(O)cc(O)c12 [5,7-DIHYDROXYISOFLAVONE] :: 58
9) CC(C)c1ccc2c(c1O)CC[C@H]1C3=C(CC[C@]21C)C(=O)OC3 [TRIPTOPHENOLIDE] :: -3
10) CC(C)=CCC1=C(O)C(=O)c2ccccc2C1=O :: 24
11) O=C1CC(c2ccc(O)cc2)Oc2ccccc21 (centres unmarked) [4′-HYDROXYFLAVANONE] :: 75
12) CCOP(=S)(OCC)Oc1nc(Cl)c(Cl)cc1Cl :: 55
13) O=c1c(O)cccc2cc(O)c(O)c(O)c12 :: 112
14) CNC(=O)Oc1cccc2c1OC(C)(C)O2 :: 101

###

- target-desc: Nrf2-Keap1 complex (Homo sapiens, UniProt Q14145)
- protocol: cell-based
- Type: cell-based
- reported-conditions: 3 h, read-out: Activation 100 nL
value-kind: activation at 16 µM (%)

1. Cc1c(O)c(O)cc2c1CC=C1[C@@]2(C)CC[C@@]2(C)[C@@H]3C[C@](C)(C(=O)O)CC[C@]3(C)CC[C@]12C [DIHYDROCELASTROL] :: 62
2. CC(=O)O[C@@H]1C[C@H]2C(C)(C)C(=O)C=C[C@]2(C)[C@H]2CC[C@@]3(C)[C@H](c4ccoc4)OC(=O)[C@H]4O[C@]43[C@@]21C :: 222
3. CC(=O)Nc1ccc(O)cc1 [ACETAMINOPHEN, reference compound] :: 53

###

Parameter 200 nL (luminescence): see the listing below.
- target-desc: Nrf2-Keap1 complex (Homo sapiens)
- protocol: cell-based
- Type: cell-based
- reported-conditions: Table 2; 200 nL compound; screen run at 16 and 32 μM, 3 hr
value-kind: 200 nL (luminescence)

1. COc1cc([C@@H]2c3cc4c(cc3[C@H](OC(C)=O)[C@H]3COC(=O)[C@H]23)OCO4)cc(OC)c1OC [PODOPHYLLOTOXINACETATE] :: 668
2. CC(=O)OC1CCC23CC1(C)CCC2C(C)(C)CC3OC(C)=O (stereo not drawn) [CLOVANEDIOLDIACETATE] :: 1356
3. O=C(CC[N+](=O)[O-])OC[C@H]1O[C@@H](O)[C@H](OC(=O)CC[N+](=O)[O-])[C@@H](OC(=O)CC[N+](=O)[O-])[C@@H]1OC(=O)CC[N+](=O)[O-] [[…]] :: 1268

###

- target-desc: Nrf2-Keap1 complex (Homo sapiens, UniProt Q14145)
- protocol: cell-based
- Assay type: cell-based
- reported-conditions: 3 h, read-out: Activation 100 nL
Structures can show the parent of a compound that is named as a salt.
Parameter activation at 16 µM: see the listing below.
value-kind: activation at 16 µM (%)

1) CCOP(=S)(OCC)Oc1nc(Cl)c(Cl)cc1Cl [CHLORPYRIFOS] :: 90
2) Oc1nc2cc(Cl)c(Cl)cc2nc1O [2,3-DIHYDROXY-6,7-DICHLOROQUINOXALINE] :: 46
3) COc1ccc2c(c1)OC/C(=C\c1ccc(OC)c(O)c1)C2=O [SAPPANONEADIMETHYLETHER] :: 377
4) COC(=O)C(N)CS (stereo not shown) [MECYSTEINEHYDROCHLORIDE, reference compound] :: 82
5) COc1ccc2cc1Oc1ccc(cc1)C[C@H]1c3c(cc4c(c3Oc3cc5c(cc3OC)CCN(C)[C@@H]5C2)OCO4)CCN1C [CEPHARANTHINE, reference compound] :: 98
6) CC(=O)OC[C@@]1(O)C[C@@]23CC[C@@H]4c5ccoc5CC[C@@]4(C)[C@@H]2CC[C@@H]1C3 [CAFESTOLACETATE] :: 81
7) O=C(/C=C/c1ccc(O)cc1)c1ccc(O)cc1O [ISOLIQUIRITIGENIN] :: 268
8) C=C1CC[C@@H]2[C@](C)(CO)[C@H](O)CC[C@@]2(C)[C@@H]1C/C=C1/C(=O)OC[C@H]1O [ANDROGRAPHOLIDE] :: 78
9) Oc1cc(O)c2c(c1)O[C@H](c1cc(O)c(O)c(O)c1)[C@H](O)C2 [EPIGALLOCATECHIN] :: 33
10) CC(=O)OC1CCC23CC1(C)CCC2C(C)(C)CC3OC(C)=O (stereo not shown) [CLOVANEDIOLDIACETATE] :: 27

###

Parameter 100 nL (luminescence): see the listing below.
- target-desc: Nrf2-Keap1 complex (Homo sapiens)
- protocol: cell-based
- Format: cell-based
- reported-conditions: Table 2; 100 nL compound; screen run at 16 and 32 μM, 3 hr
value-kind: 100 nL (luminescence)

1) CCCCCCCCCCCCCCCc1ccco1 :: 880
2) CC(=O)OC1CC[C@@]2(C)C(CC[C@H]3[C@@H]4CC=C(C(C)=O)[C@@]4(C)C(=O)C[C@@H]32)C1 (stereo partly drawn) :: 2236
3) C=C(C)[C@H]1Cc2c(ccc3c2O[C@@H]2COc4cc(OC)c(OC)cc4[C@@H]2C3=O)O1 :: 776
4) CC(C)c1cc2c(c(O)c1O)[C@@]1(C(=O)O)CCCC(C)(C)[C@@H]1CC2 :: 3620
5) CC(=O)C(=Cc1ccccc1)CC(=O)O :: 1048
6) C=C(CC)C(=O)c1ccc(OCC(=O)O)c(Cl)c1Cl [reference compound] :: 2088
7) CC(=O)O[C@H]1CCC2(C)C3=C(CCC2C1(C)C)[C@@]1(C)CC[C@@H](C(C)CCC=C(C)C)[C@]1(C)CC3 (stereo partly drawn) [EUPHOLACETATE] :: 1710
8) OC[C@H]1O[C@H]([S-])[C@H](O)[C@@H](O)[C@@H]1O.[Au+] [AUROTHIOGLUCOSE, reference compound] :: 604
9) CC(=O)O[C@H]1C[C@@H](OC(C)=O)C(C)(C)[C@@H]2CC(=O)[C@]3(C)[C@H](CC[C@@]4(C)[C@H](c5ccoc5)OC(=O)[C@H]5O[C@]543)[C@@]12C :: 2924
10) O=C1C[C@@H](c2ccc(O)c(O)c2)Oc2cc(O)cc(O)c21 :: 1028
11) COC(=O)c1c(C)cc(O)cc1O [METHYLORSELLINATE] :: 640
12) CC1(C)C2(Cl)C(Cl)C(Cl)C(Cl)(C(Cl)Cl)C1(Cl)C2Cl (stereo not drawn) :: 5556
13) CC(C)=CCCC1(C)C=Cc2c(O)c3c(c(CC=C(C)C)c2O1)OC12C(=CCCC1C(C)(C)O[C@@]2(C/C=C(\C)C(=O)O)C(=O)O)C3=O (stereo partly drawn) :: 800
14) CC(C)=CCC[C@@H](C)[C@@H]1CC[C@]2(C)C3=C(CC[C@@]12C)[C@@]1(C)CC[C@H](O)C(C)(C)[C@@H]1CC3 :: 1572
15) CC(=O)O[C@@H]1C[C@H]2C(C)(C)[C@@H](O)CC[C@]2(C)[C@H]2CC[C@@]3(C)[C@H](c4ccoc4)OC(=O)[C@H]4O[C@]43[C@@]21C [beta-DIHYDROGEDUNOL] :: 2270
16) COc1cc(C/C=C/c2ccccc2)c(OC)cc1O :: 2388
17) CCOP(=S)(OCC)Oc1nc(Cl)c(Cl)cc1Cl :: 1572
18) CC(=O)O[C@H]1CC[C@]2(C)C(C[C@@H](OC(C)=O)[C@]3(C)C4=CC(=O)O[C@H](c5ccoc5)[C@@]4(C)CCC23)C1(C)C (stereo partly drawn) [3-DEOXO-3beta-ACETOXYDEOXYDIHYDROGEDUNIN] :: 1256
